target: EPHB1 (UniProt P54762); assay: phosphorylation enrichment, bacterial display (enrichment ratio); higher = better substrate or ligand; peptides without Tyr show the background
Sequence (P54762 whole entry, looked up): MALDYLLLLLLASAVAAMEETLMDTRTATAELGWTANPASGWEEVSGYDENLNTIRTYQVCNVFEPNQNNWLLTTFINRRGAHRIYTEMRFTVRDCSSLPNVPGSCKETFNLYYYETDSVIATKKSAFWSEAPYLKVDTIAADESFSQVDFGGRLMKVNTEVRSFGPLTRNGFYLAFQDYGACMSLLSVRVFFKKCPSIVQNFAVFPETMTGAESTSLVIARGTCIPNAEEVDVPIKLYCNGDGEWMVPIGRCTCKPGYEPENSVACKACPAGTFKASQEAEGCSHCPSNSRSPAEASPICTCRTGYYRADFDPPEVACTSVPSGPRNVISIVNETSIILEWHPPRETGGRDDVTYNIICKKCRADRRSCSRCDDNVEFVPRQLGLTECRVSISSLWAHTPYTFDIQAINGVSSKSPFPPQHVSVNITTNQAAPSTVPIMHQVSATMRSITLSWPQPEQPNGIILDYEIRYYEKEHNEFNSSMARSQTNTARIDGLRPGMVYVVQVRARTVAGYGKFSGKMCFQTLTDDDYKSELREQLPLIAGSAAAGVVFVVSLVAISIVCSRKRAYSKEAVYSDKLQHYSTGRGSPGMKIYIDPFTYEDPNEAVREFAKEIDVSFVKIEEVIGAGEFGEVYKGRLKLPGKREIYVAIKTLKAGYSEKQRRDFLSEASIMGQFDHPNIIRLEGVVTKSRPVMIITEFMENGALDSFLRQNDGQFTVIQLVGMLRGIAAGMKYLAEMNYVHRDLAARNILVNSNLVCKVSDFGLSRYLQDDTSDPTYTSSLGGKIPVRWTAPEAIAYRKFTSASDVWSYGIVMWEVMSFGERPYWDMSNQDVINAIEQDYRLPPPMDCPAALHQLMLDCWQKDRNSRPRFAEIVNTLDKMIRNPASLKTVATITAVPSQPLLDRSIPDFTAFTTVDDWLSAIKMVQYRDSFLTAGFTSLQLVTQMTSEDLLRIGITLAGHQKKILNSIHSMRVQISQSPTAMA
measureName: phosphorylation enrichment

ACEVLYNIVFM [NCF2_Y125_A128V]
1.17
KSSDVYVSFDF [SORL1_Y136_YF]
1.73

Your task in this section: give phosphorylation enrichment for each listed record.
1. PSALGYSPSLH [LLGL2_Y40_R45H]
2. DLAGRYYALRS [CKB_Y173_K177R]
3. CTTIHYNFLCN [TP53_Y234_M237L_YF]
4. KALKQYRAGPS [DDX27_Y763]
5. CTTIHYNYMWN [TP53_Y234_C238W]
6. APAHKYHGGGG [HBD_Y146_L142P]
7. MSRNLYSGDCF [DDR2_Y736_Y740C_YF]

stdout:
1. 0.573
2. 0.352
3. 0.54
4. 0.34
5. 1.12
6. 0.288
7. 2.02

Your task in this section: give phosphorylation enrichment for each listed record.
1. CSDPSYVKQME [CDC5L_Y464_Y459C]
2. PKFHSYVSLPF [PLXNA2_Y293]
3. EVVGRYSGHNA [MLH1_Y183_V185G]
4. NKKYHYRELPV [ERN2_Y860_H858Y]
5. KLVRLYAVVTR [LYN_Y306]

stdout:
[0.703, 1.38, 0.434, 0.361, 0.799]

###

biological target: EPHB1 (UniProt P54762); assay: phosphorylation enrichment, bacterial display (enrichment ratio); higher = better substrate or ligand; peptides without Tyr show the background
Categories are defined by ranges of phosphorylation enrichment, namely group A = under 0.4, group B = from 0.4 up to 0.7, group C = 0.7 and over

// known answers, use as guide
ITRDEYPSNPM [CEMIP2_Y1015]
group B
HLDRSYSYSYS [PEAR1_Y890_R885H]
group B
LFSLGYHQSLW [GANAB_Y396_R400L]
group B

stdin: Please classify: MSRDIYSTDFF [NTRK1_Y676_YF]
stdout: group C

stdin: Please classify: GSSSSCGQHGS [HRNR_Y517_Y517C]
stdout: group A

stdin: Please classify: ENRKFYKDLKE [PURA_Y156_M157K_YF]
stdout: group A

###

molecular target: c-Src SH2; test: SH2 binding enrichment of the phosphorylated peptide, bacterial display (enrichment ratio); higher = better substrate or ligand; peptides without Tyr show the background
Give SH2 binding enrichment for every item shown.
One number for each entry.

Examples with answers:
IAAEFYDNLPH [DEGS1_Y284_YF]
0.77
EKQVAYCPSGR [ROS1_Y2323_K2328R]
0.631
CPYNLYAEQFS [HGD_Y40_L44F]
0.706
FGISGYVVDSV [MAP2K3_Y214_L215V]
0.719

Your task in this section: give SH2 binding enrichment for each listed record.
1. GARGRYIMGGP [TNK1_Y277_V278I]
2. PKEEPYQMQEK [SLC5A3_Y565]
3. MDDDQYALLTT [EFCAB6_Y675]
4. YTGNTYRVGDT [FN1_Y106]

stdout:
0.606
0.457
0.695
0.406

Your task in this section: give SH2 binding enrichment for each listed record.
1. SVKVFYKKCWS [EPHA7_Y202_YF]
2. RSYSPCDYQPC [TNS1_Y796_Y796C]
3. RRIHSYRGQLW [VHL_Y112_H115Q]
4. TFMKQYPKVFL [CNBD1_Y70]
5. AHADEYGAEAL [HBA1_Y25_G23D]
6. TVFSDYLHPQF [CCPG1_Y569_YF]

stdout:
1. 0.396
2. 1.17
3. 0.343
4. 0.559
5. 0.393
6. 0.591

Your task in this section: give SH2 binding enrichment for each listed record.
1. IGEVVYQRAAM [GRIN2A_Y502_V506A]
2. CGPLLYGLVHQ [PRKCG_Y122_S119P]
3. VVLVSYVPFSQ [SH2B1_Y624_S627F]

stdout:
1. 0.53
2. 0.517
3. 0.906

###

target: EPHB1 (UniProt P54762); assay: phosphorylation enrichment, bacterial display (enrichment ratio); higher = better substrate or ligand; peptides without Tyr show the background
measureName: phosphorylation enrichment
One number for each entry.

Examples with answers:
ACCLLYCGDVV [TUBA4A_Y319_R320C]
9.94
LTMAPYSSVSV [FAM81A_Y24_L29V]
0.683
NDQPDYDSVAS [GIT2_Y392]
0.63
NFRTIYVNANE [KCNH2_Y475_T474I]
0.543

Your task in this section: give phosphorylation enrichment for each listed record.
1. VKPHRYRPGTV [H3-5_Y41]
2. YCIDHYLGKEM [G6PD_Y202_R198C]
3. HTLMKYTDGDQ [PUS7L_Y94_I92M]

stdout:
[0.378, 0.499, 1.17]

###

target: FGFR3 (UniProt P22607); test: phosphorylation enrichment, bacterial display (enrichment ratio); higher = better substrate or ligand; peptides without Tyr show the background
Sequence (P22607 whole entry, looked up): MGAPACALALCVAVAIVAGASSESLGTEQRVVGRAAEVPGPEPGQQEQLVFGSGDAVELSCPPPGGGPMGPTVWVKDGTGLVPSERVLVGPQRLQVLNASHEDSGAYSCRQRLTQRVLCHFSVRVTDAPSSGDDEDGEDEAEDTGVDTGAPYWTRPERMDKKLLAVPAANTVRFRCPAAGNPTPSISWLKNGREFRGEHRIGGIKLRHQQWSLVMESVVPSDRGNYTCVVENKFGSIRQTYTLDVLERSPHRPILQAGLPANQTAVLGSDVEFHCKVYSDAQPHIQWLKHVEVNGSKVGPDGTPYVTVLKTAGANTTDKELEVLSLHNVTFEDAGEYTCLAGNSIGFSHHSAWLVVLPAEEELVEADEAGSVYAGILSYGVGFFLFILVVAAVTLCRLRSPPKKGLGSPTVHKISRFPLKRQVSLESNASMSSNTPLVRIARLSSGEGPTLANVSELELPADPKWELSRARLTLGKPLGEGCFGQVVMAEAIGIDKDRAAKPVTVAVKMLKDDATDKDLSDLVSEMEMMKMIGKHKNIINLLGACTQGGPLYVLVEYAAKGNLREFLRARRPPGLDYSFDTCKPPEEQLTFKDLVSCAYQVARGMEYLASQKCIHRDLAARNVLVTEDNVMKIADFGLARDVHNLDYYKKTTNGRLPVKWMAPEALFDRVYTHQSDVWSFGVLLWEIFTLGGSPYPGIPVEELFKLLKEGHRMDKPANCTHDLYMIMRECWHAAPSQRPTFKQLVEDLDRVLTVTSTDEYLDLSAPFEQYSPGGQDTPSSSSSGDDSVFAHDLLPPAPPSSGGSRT
Give phosphorylation enrichment for every item shown.

Examples with answers:
TINPIYEHVGY [CHN1_Y143]
1.06
NFRTIYVNANE [KCNH2_Y475_T474I]
0.529
FLAVGDHKPHI [IDS_Y225_Y225D]
0.35
LLILEYAKYGS [RET_Y806_V804L]
0.869
NGTVTYAIIAG [CDH23_Y1672_V1675I]
0.746
TTKGSYSLYVR [HCK_Y180_S183Y]
0.671
QEGPEYWDQET [HLA-A_Y83]
1.16
GKSFIYAAFHA [KCNT1_Y563_T562I]
0.805
PLLLSYYLIKW [NUP160_Y773]
3.73
DTKDDYNALSV [IL17RB_Y457]
0.718

Your task in this section: give phosphorylation enrichment for each listed record.
1. KNDSIYVVKGN [KIT_Y823_N822I]
2. EKNANYKEGTF [CLRN1_Y171_I168N_YF]
3. PKFHSYVSLPF [PLXNA2_Y293]
4. EQLRAYLEGTC [HLA-C_Y183]
5. CRIELYRIVES [IGFBP1_Y181_V183I]
6. YLNSSYINIST [IL23R_Y178_T175N]
7. TVFSDYLHPQF [CCPG1_Y569_YF]
8. DIDKIYVRTGI [PIK3CA_Y355]

stdout:
1: 0.469; 2: 0.46; 3: 1.82; 4: 0.692; 5: 0.837; 6: 2.14; 7: 0.938; 8: 0.772

Your task in this section: give phosphorylation enrichment for each listed record.
1. FKGKKYKPLDL [RPL35_Y78_YF]
2. PTFKHYANSTQ [SLC12A3_Y70_E68K_YF]
3. CDDGKYVFVVT [RPS6KA3_Y488_Y483C_YF]
4. AASHRYDLGGL [QPRT_Y162]
5. QEEPEYWDQET [HLA-A_Y83_G80E]
6. EQKKFYNAMKK [SCN5A_Y1495_YF]
7. VPLLEYFWDIF [CDAN1_Y712_R714W_YF]

stdout:
1: 0.413; 2: 0.599; 3: 0.919; 4: 0.4; 5: 1.43; 6: 0.339; 7: 2.73

Your task in this section: give phosphorylation enrichment for each listed record.
1. FDAHIYEGCVI [PRKCD_Y64_R67C]
2. LKALHYMVQTS [SACS_Y3367]
3. RFLRGYRQDAY [HLA-A_Y137]
4. RGKDSYETSKL [SPP1_Y225_Q229K]

stdout:
1. 0.831
2. 0.459
3. 0.664
4. 0.788

###

target: SHP2-C SH2; test: SH2 binding enrichment of the phosphorylated peptide, bacterial display (enrichment ratio); higher = better substrate or ligand; peptides without Tyr show the background
Label Condition met when SH2 binding enrichment is at or above 0.6; anything below gets Condition not met.

stdin: Given the entry DKEKWYPLGTS [PIK3C2G_Y1438_N1442T] , answer whether its SH2 binding enrichment meets or surpasses 0.6.
stdout: Condition not met

stdin: Given the entry TEDELYQLSLQ [RASGRP2_Y378] , answer whether its SH2 binding enrichment meets or surpasses 0.6.
stdout: Condition not met

stdin: Given the entry FGPPQYNIQFS [ERBB2IP_Y977_YF] , answer whether its SH2 binding enrichment meets or surpasses 0.6.
stdout: Condition met

stdin: Given the entry YETVKYFNNER [ABCB7_Y345] , answer whether its SH2 binding enrichment meets or surpasses 0.6.
stdout: Condition met

stdin: Given the entry RNFGTYTAGLS [RHBDD1_Y264_D262G_YF] , answer whether its SH2 binding enrichment meets or surpasses 0.6.
stdout: Condition met

###

Give phosphorylation enrichment for every item shown.
target: Fes (UniProt P07332); assay: phosphorylation enrichment, bacterial display (enrichment ratio); higher = better substrate or ligand; peptides without Tyr show the background
Sequence (P07332 whole entry, looked up): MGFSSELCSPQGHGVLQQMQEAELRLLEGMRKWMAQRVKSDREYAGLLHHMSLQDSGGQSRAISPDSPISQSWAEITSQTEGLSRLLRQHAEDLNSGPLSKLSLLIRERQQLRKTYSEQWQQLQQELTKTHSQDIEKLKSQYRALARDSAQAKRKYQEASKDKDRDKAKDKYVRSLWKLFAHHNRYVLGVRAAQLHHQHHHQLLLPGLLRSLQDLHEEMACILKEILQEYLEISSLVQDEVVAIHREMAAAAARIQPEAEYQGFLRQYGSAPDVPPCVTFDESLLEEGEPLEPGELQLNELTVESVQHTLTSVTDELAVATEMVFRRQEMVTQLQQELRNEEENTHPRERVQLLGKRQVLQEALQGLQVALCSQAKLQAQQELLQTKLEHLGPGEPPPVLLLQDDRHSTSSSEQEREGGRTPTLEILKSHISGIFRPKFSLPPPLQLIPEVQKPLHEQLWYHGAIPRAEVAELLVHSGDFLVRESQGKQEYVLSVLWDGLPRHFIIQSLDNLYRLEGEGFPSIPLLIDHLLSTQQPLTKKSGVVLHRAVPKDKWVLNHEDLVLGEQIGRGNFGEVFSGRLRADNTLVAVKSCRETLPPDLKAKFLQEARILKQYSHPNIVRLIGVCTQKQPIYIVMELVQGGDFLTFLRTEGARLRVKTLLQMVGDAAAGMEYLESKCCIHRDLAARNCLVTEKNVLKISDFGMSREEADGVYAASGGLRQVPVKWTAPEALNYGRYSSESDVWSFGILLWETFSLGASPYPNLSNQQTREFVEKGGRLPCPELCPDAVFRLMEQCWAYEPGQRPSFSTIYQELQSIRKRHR
Numbers only.

Your task in this section: give phosphorylation enrichment for each listed record.
1. KILGRYFETSS [PAX2_Y72_G76S_YF]
2. LTFDEYRNISQ [ANXA3_Y216]

stdout:
1. 0.694
2. 1.93

Your task in this section: give phosphorylation enrichment for each listed record.
1. IAAEFYDNLPH [DEGS1_Y284_YF]
2. DKEKWYPLGTS [PIK3C2G_Y1438_N1442T]
3. VLTSKYRGGGG [HBA1_Y141]

stdout:
0.79
0.931
0.911
